Recorded Sesamol Distribution Volume in presence of the compound for the following compounds
# Tested on: LAT1
# SETUP_CONDITIONS: Vero cells; sesamol 0.1 mM, 10 min; competitor at the concentration printed in the row
READOUT_LABEL: Sesamol Distribution Volume in presence of the compound (µL/mg Protein)

>>> df
                                  compound  result_value
0                     CC(C)C[C@H](N)C(=O)O          13.8
1                          C[C@H](N)C(=O)O          13.3
2  NC1(C(=O)O)CC2CCC1C2 (stereo not shown)          10.4
3    N[C@@H](Cc1ccc(N(CCCl)CCCl)cc1)C(=O)O          11.7
